Hello, the source for this data is the supplement of paper PMC10811239, in case you need it.

Test system: LEGO organoid PTCC (PTEN-/-; TP53-/-; CDKN2A-/-; CDKN2B-/-)
measurement-description: bioluminescence (viable cell) signal fold change after vs before treatment, normalised to DMSO (ratio); higher = more tumour cell growth / less inhibition
particulars: 10 µM; treatment time 6 days
Answer f if bioluminescence is under 1, and t if it is 1 or more.

molecule: CS(=O)(=O)CCNCc1ccc(-c2ccc3ncnc(Nc4ccc(OCc5cccc(F)c5)c(Cl)c4)c3c2)o1 [Lapatinib]
answer-label: f
--
molecule: O=C(O)Cc1ccccc1Nc1c(Cl)cccc1Cl [Diclofenac]
answer-label: t
--
molecule: Cl.Cl.OCCOCCN1CCN(C(c2ccccc2)c2ccc(Cl)cc2)CC1 (stereo unspecified) [Hydroxyzine dihydrochloride]
answer-label: f
--
molecule: O=C(c1cc(Cc2n[nH]c(=O)c3ccccc23)ccc1F)N1CCN(C(=O)C2CC2)CC1 [Olaparib]
answer-label: t
--
molecule: C#CCN[C@@H]1CCc2ccccc21 [Rasagiline]
answer-label: t

Next:
Lookup: Entry C=C/C=C/C[C@@H](C)[C@@H](O)[C@H]1C(=O)N[C@@H](CC)C(=O)N(C)CC(=O)N(C)[C@@H](CC(C)C)C(=O)N[C@@H](C(C)C)C(=O)N(C)[C@@H](CC(C)C)C(=O)N[C@@H](C)C(=O)N[C@H](C)C(=O)N(C)[C@@H](CC(C)C)C(=O)N(C)[C@@H](CC(C)C)C(=O)N(C)[C@@H](C(C)C)C(=O)N1C [Voclosporin] : is its bioluminescence no less than 1?
Found: f

* * *

System: LEGO organoid PTCC (PTEN-/-; TP53-/-; CDKN2A-/-; CDKN2B-/-)
measurement-description: bioluminescence (viable cell) signal fold change after vs before treatment, normalised to DMSO (ratio); higher = more tumour cell growth / less inhibition
particulars: 10 µM; treatment time 6 days
Exercise: state measured bioluminescence for each of the compounds provided.

The examples below pair each entry with its known result.
compound: CN(C)CC(c1ccc(O)cc1)C1(O)CCCCC1 (centres undefined)
bioluminescence: 1.07

compound: CN1CCN(CCCN2c3ccccc3Sc3ccc(C(F)(F)F)cc32)CC1.Cl.Cl [Trifluoperazine dihydrochloride]
bioluminescence: 1.31

Give one value of bioluminescence per listed compound.
1. CCCN(CCC)CCc1cccc2c1CC(=O)N2.Cl [Ropinirole hydrochloride]
2. CC(=O)Nc1ccc(O)cc1
3. CC[C@H](C)C(=O)O[C@H]1C[C@@H](C)C=C2C=C[C@H](C)[C@H](CC[C@@H]3C[C@@H](O)CC(=O)O3)[C@H]21

Found:
1. 1.02
2. 0.686
3. 1.02

* * *

Tested on: LEGO organoid PT (PTEN-/-; TP53-/-)
measurement-description: bioluminescence (viable cell) signal fold change after vs before treatment, normalised to DMSO (ratio); higher = more tumour cell growth / less inhibition
particulars: 10 µM; treatment time 6 days
property: bioluminescence
One number for each entry.

compound: Cc1nc2n(c(=O)c1CCN1CCC(c3noc4cc(F)ccc34)CC1)CCCC2
bioluminescence: 1.57
//
compound: O=C1CCC(N2C(=O)c3ccccc3C2=O)C(=O)N1 (stereo not drawn) [Thalidomide]
bioluminescence: 3.97
//
compound: CC/C(=C(\c1ccccc1)c1ccc(OCCN(C)C)cc1)c1ccccc1
bioluminescence: 0.646
//
compound: COc1cc2ncnc(Nc3ccc(F)c(Cl)c3)c2cc1NC(=O)/C=C/CN1CCCCC1
bioluminescence: 0.37
//
compound: Cl.Cc1ccsc1\C(=C\CCN1CCC[C@H](C1)C(O)=O)c1sccc1C [Tiagabine hydrochloride]
bioluminescence: 1.04

Give one value of bioluminescence per listed compound.
1. CC(=O)c1c(C)c2cnc(Nc3ccc(N4CCNCC4)cn3)nc2n(C2CCCC2)c1=O.O=S(=O)(O)CCO [Palbociclib Isethionate]
2. C#Cc1cccc(Nc2ncnc3cc(OCCOC)c(OCCOC)cc23)c1

Found:
1. 3.4
2. 0.504

Lookup: Write down the reported bioluminescence of CN(C/C=C/c1ccccc1)Cc1cccc2ccccc12.Cl [Naftifine hydrochloride] , test system: LEGO organoid PT (PTEN-/-; TP53-/-).
Found: 0.607
